B1: Ankyrin-3, residues 4094 to 4171; numbered along this chain, Q12955 (parent)
chain: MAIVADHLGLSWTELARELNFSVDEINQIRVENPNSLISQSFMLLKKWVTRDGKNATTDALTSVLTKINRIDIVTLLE

Variants of: B1
Test: abundance fitness (aPCA) (normalised: wild type 0, dead -1); higher = more abundant; growth selection in yeast, the domain comes from the species named
Conditions: Homo sapiens
Quick rule: abundance fitness of at least -0.5 means y, below that means n.

Worked examples follow.
> print(dat)
   mutant.name  label
1          M1C      y
2          L8P      n
3         N20K      y
4         L65E      n
5         A60W      y

Check the entry E25M : does abundance fitness equal or exceed -0.5?
n

Another: R17L
y

Another: D24V
y

Another: T50P
n

Another: A16H
n

Another: G53P
y

Another: V49A
y

Another: L61T
n

Another: T50E
y

Another: I38E
y
